B1: TET3 peptide 1705-1720 (methylcytosine dioxygenase TET3), 16-mer library wild type / USP8 rhodanese domain (ubiquitin carboxyl-terminal hydrolase 8, residues 174-317) (parent)
chain 1: GLALWEAKMKQLAERA
chain 2: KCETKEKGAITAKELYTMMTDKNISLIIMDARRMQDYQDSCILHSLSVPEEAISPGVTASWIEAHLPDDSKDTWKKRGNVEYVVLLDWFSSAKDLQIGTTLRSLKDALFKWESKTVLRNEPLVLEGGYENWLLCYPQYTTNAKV

variants of: B1; test: peptide-phage display deep mutational scan (M13, 16-mer library, displayed with a C-terminal GGGSG linker encoded by the 3' flank) selected against the GST-tagged USP8 rhodanese domain, four rounds; NGS counts summed over selection …; settings: with USP8 rhodanese domain (ubiquitin carboxyl-terminal hydrolase 8, residues 174-317), 10 µg GST-bait on MaxiSorp, pre-cleared on GST, 2 h at 4 °C, five washes with 0.05% Tween 20 in PBS, not graded, scale: average over two replicas of the peptide's fractional NGS count
Measurement type: screen value

1. chain 1 R15N; 8.62e-05
2. chain 1 R15P; 0.0867
3. chain 1 R15A; 4.33e-06
4. chain 1 L12I; 4.33e-06
5. chain 1 Q11D; 0.00724
6. chain 1 G1R; 4.33e-06
7. chain 1 L4G; 2.3e-05
8. chain 1 A7Q; 0.00623
9. chain 1 A7H; 0.00234
10. chain 1 M9V; 1.3e-05
11. chain 1 K10H; 0.0117
12. chain 1 L4T; 0.000596
13. chain 1 W5G; 7.36e-05
14. chain 1 A13V; 0.0163
15. chain 1 A3L; 4.33e-06
16. chain 1 A13I; 1.3e-05
17. chain 1 A16L; 6.61e-05
18. chain 1 K8E; 4.33e-06
19. chain 1 R15E; 0.00031
20. chain 1 E6V; 1.15e-05
21. chain 1 W5S; 7.78e-05
22. chain 1 R15D; 7.21e-05
23. chain 1 M9W; 0.00223
24. chain 1 L4K; 4.33e-06
25. chain 1 K10Q; 0.000152
26. chain 1 M9F; 1.3e-05
27. chain 1 E14I; 4.33e-06
28. chain 1 L4H; 1.3e-05
29. chain 1 A3M; 0.00023
30. chain 1 A3W; 9.64e-05
31. chain 1 E14D; 2.73e-05
32. chain 1 L4Q; 0.00044
33. chain 1 Q11T; 0.000142
34. chain 1 K8Q; 4.33e-06
35. chain 1 A7F; 4.33e-06
36. chain 1 A3F; 4.33e-06

# credit: paper PMC12057046
